- target-system: IRAK4 (Homo sapiens, UniProt Q9NWZ3)
- Construct: with 0.1 nM IRAK4, 1.6 μM of biotinylated peptide substrate and 10 μM ATP
- Sequence (Q9NWZ3 whole entry): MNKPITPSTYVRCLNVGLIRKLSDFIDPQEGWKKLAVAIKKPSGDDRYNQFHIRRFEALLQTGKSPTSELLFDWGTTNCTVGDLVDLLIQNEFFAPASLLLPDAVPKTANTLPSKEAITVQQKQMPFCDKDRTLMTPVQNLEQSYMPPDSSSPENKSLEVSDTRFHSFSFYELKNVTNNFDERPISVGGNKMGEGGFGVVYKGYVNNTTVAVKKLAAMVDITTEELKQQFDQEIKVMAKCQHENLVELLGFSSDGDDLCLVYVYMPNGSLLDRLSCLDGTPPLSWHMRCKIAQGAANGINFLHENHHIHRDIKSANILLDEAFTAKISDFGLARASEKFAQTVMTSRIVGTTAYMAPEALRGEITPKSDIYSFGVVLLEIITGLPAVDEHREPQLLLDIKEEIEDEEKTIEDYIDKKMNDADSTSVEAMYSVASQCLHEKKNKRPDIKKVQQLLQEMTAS
- experimental-details: IRAK4 MSD Biochemical Assay (1 mM ATP, 2 h)
- run-conditions: room temperature, read-out: IRAK4 MSD Biochemical Assay (1 mM ATP, 2 h) IC50
pIC50: −log10 of the molar value.
endpoint-label: pIC50

{"columns": ["compound", "pIC50"],
 "data": [
  ["COCCn1cc2cc(C(=O)Nc3cccc(C(F)F)n3)c(OC(C)C)cc2n1.Cl [Example 28, hydrochloride]", 8.36],
  ["Cc1ccn2ncc(NC(=O)c3cc4cn(C5CCCOC5)nc4nc3OC3CCC3)c2n1 (single isomer, unassigned) [Example 133]", 8.77]
]}

(A) CC(C)Oc1nc2nn([C@@H]3CCCOC3)cc2cc1C(=O)Nc1cnn2cccnc12 (single isomer, unassigned) [Example 120]
(B) CC(C)Oc1cc2nn(C34CCC(C)(C3)OC4)cc2cc1C(=O)Nc1ccn(C)n1 (stereo not shown) [Example 101]
Parameter metric = pIC50. Return the lower-valued option from A and B . Give the label under which the chosen entry appears.
B
